Target Entity: PI3Kδ (Homo sapiens, UniProt O00329)
Sequence (O00329 whole entry): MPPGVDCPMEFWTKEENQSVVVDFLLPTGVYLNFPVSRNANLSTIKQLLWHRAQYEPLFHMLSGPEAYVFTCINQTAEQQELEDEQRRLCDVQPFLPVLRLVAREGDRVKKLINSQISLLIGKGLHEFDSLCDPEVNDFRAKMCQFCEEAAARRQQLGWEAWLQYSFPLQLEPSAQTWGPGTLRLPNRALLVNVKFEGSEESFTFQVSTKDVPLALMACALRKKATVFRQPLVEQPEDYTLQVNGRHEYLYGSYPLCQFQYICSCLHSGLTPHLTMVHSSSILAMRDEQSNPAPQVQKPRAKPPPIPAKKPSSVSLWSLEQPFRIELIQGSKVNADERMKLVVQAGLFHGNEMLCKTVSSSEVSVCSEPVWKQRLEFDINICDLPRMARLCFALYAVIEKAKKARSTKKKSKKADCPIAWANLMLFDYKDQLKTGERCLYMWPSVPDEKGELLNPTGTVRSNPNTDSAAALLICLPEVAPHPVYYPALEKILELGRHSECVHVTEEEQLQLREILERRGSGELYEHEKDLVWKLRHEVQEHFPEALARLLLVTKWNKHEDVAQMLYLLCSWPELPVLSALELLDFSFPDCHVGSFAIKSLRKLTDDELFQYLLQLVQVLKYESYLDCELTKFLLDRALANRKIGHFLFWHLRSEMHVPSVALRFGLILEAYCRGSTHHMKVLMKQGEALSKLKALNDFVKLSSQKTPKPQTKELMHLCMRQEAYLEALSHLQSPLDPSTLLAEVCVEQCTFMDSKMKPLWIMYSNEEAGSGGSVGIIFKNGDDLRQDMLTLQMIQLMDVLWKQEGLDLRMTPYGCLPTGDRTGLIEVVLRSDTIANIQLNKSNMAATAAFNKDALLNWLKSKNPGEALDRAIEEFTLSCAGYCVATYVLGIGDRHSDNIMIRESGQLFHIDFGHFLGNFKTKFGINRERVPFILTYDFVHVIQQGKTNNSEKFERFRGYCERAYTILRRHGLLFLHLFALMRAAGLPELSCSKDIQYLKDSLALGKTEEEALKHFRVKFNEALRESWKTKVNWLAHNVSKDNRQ
Sequence (P27986 whole entry partner): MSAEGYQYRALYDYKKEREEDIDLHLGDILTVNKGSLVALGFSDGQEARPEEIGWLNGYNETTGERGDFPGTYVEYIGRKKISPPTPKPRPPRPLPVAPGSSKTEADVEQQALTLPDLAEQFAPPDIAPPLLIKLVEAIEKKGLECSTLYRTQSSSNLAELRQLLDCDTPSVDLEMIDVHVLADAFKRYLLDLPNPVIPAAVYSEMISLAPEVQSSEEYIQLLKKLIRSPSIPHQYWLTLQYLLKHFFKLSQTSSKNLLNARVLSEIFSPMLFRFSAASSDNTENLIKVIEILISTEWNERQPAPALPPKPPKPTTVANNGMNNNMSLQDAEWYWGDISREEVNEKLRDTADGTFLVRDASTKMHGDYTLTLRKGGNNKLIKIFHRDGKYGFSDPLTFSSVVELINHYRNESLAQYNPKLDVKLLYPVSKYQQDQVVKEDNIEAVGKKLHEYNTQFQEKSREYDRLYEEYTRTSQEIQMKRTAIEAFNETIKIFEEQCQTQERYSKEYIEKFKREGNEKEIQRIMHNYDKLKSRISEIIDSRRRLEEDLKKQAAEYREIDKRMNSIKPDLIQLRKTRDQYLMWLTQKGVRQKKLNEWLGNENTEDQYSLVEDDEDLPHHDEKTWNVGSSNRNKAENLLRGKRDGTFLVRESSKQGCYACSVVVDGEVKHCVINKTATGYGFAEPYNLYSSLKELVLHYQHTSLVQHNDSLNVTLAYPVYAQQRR
Experiment Notes: PI3Kδ inhibitory activity
Type: biochemical
Experimental Parameters: at the concentration of 100 nM; mean of at least two experiments
Below: a set of entries, each annotated with reported inhibition at 0.1 µM.
Please state the figure in %; there is no need to write the unit.

COc1ccc(-c2ccc3ncnc(N[C@H]4CCCN(C(=O)C5CCOCC5)C4)c3c2)cn1 [Compound 14e]	88

inhibition at 0.1 µM in this record for COc1ccc(-c2ccc3ncnc(O[C@H]4CCN(C(=O)C(C)(C)C)C4)c3c2)cn1 [Compound 12e] : 53

molecule COc1ccc(-c2ccc3ncnc(N[C@H]4CCCN(C(=O)C(C)(C)C)C4)c3c2)cn1 [Compound 14f] , inhibition at 0.1 µM observed: 54
